Assignment: determine reported pKa for the given compounds.
- measurement.protocol: physchem
- Description: Dissociation constant, pKa of the compound
Lab note: write the figure by itself, no unit.

What does the record list as pKa for O=C(O)c1cn2c(c1O)C(=O)N(Cc1ccccc1)CC2 ? 3.8

What does the record list as pKa for O=C(O)c1cn2c(c1O)C(=O)N(Cc1cccc(Cl)c1)CC2 ? 3.8

----------
- measurement.protocol: Half life in rat at 2 mg/kg, iv
- Format: ADME, organism-based
- Parameters: dose 2 mg/kg, route intravenous
- condition.parameters: in vivo
property: half-life (min)
A number alone suffices; assume min.

What does the record list as half-life for CCOC(=O)c1cn2c(c1O)C(=O)N(Cc1ccc(Cl)c(Cl)c1)CC2 ? 30

Where do these numbers come from? They come from ChEMBL document CHEMBL1137622.
